Reported values of GI50 for individual entries
- Tested on: HOP-92
- run_description: NCI tumour cell line growth inhibition, 48 h
The source made the active and inactive calls. Rule as the data show it: active = GI50 up to about 1.1 µM and inactive = higher.

See these solved cases before continuing.
compound="O=C(O)CSC(CC1(c2ccc(Cl)cc2)NC(=O)CS1)c1ccc(Cl)cc1 (centres undefined)" measured_parameter=GI50 measured_result="22.8 µM (inactive)"
compound=NS(=O)(=O)c1nnc(NC(=O)C23CC4CC(CC(C4)C2)C3)s1 measured_parameter=GI50 measured_result="> 100 µM (inactive)"
compound=Cc1nc2ccc(F)cc2c2c1CCN2c1ccccc1 measured_parameter=GI50 measured_result="12.2 µM (inactive)"

Turning now to a further record.
Query :: What value of measured GI50 is listed for Cc1ccc(NC(=O)C(=O)C2NC(=S)NC2=O)c([N+](=O)[O-])c1 (centres undefined) ?
Result :: 45.5 µM (inactive)

====

- Tested on: U-251
- run_description: NCI tumour cell line growth inhibition, 48 h
Calls of active or inactive are those of the source. Cut-off read from the data, not from the text of the source: active = GI50 up to about 1.1 µM and inactive = higher.
measured_parameter: GI50

Query :: Tell me the measured GI50 of C[C@]12CCC3c4ccc(O)cc4CC[C@H]3C1CC(=O)N(CCN1CCCC1)C2=O (some centres undefined) , please.
Result :: > 10 µM (inactive)

====

- Tested on: HT-29
- run_description: NCI tumour cell line growth inhibition, 48 h
The source made the active and inactive calls. No stated cut-off is given here; in the data, active = GI50 up to about 1.1 µM and inactive = higher.
Please reply with one of these outcomes: active, inactive

Below are worked cases with known answers.
compound=Cn1nc2ccc3nccc(N(CCO)CCO)c3c2n1 assigned_label=inactive
compound=S=C(Nc1ccc2cn[nH]c2c1)Nc1ccc2cn[nH]c2c1 assigned_label=inactive

Query :: Recorded call for COC1CC(OC2CCC3(C)C(=CCC4C3C(OC(C)=O)C(OC(=O)CC(C)C)C3(C)C(C(C)=O)CCC43O)C2)OC(C)C1OC1CC(OC)C(OC2CC(OC)C(OC3OC(C)C(OC4OC(CO)C(O)C(O)C4O)C(OC)C3O)C(C)O2)C(C)O1 (stereo unspecified) ?
Result :: inactive

Query :: Hi team, can someone confirm the assay call for Cc1ccc(NC(=O)C(=O)C2NC(=S)NC2=O)c([N+](=O)[O-])c1 (stereo unspecified) ?
Result :: inactive

Query :: Given Cc1cc(C)nc(NS(=O)(=O)c2ccc(Nc3c4ccccc4nc4c(C(=O)NCCN(C)C)ccc(Cl)c34)cc2)n1 , state the outcome it received in this test.
Result :: active

Query :: Would you mind telling me which call this test gave C=CCSc1nnc2cc(CN3CCCC3)c(-c3ccc(Cl)cc3)nn12 ?
Result :: inactive

Query :: Entry Cc1c(F)c(N)c2c(=O)cc(-c3ccc(NC(=O)[C@@H](N)CCCCN)c(F)c3)oc2c1F : call = ?
Result :: inactive

Query :: Kindly provide the recorded test outcome for the following compound: NS(=O)(=O)c1ccc(NC(=O)c2cccc3c(=O)c4ccccc4[nH]c23)cc1
Result :: inactive

Query :: # fetch the recorded call for CC1(C)[C@@H](Cn2cnc3c(N)ncnc32)CC[C@@]1(C)CO here
Result :: inactive

Query :: Can you look up the reported call for CC(=O)C1C(=O)C(=O)N(CCN2C(=O)C(=O)C(C(C)=O)C2=O)C1=O (stereo unspecified) for me?
Result :: inactive

====

- System: OVCAR-3
- run_description: NCI tumour cell line growth inhibition, 48 h
Activity calls are given as the source filed them. Rule as the data show it: active = GI50 up to about 1.1 µM and inactive = higher. *1 amine or outer side, *2 acyl side, *3 side chain or, on linkers, in order; H or OH if unused. Where a SMILES comes first, the peptide text is derived from it. [ ]: non-standard residue; d: D form. The star is where a group is joined. ξ: configuration not given here. X43 = CCC(=O)CC(O)CC(C)CC(N[*:1])C(=O)[*:2]; ξLeu(3ξ-OH) = CC(C)C(O)C(N)C(=O)O; ξPro(4ξ-Me) = CC1CNC(C(=O)O)C1; X42 = CCC(C)/C=C/C(=O)*; Aib = CC(C)(N)C(=O)O; X44 = CC(CN(C)C)N*; βAla = NCCC(=O)O
Permitted responses: active, inactive

molecule=Cc1cc(S(=O)(=O)Nc2nc3cccnc3[nH]2)c(S)cc1Cl assigned_label=inactive

Query :: Which outcome was assigned to COc1ccc2oc(=N)c(C(=O)Nc3ccccn3)cc2c1 in this test?
Result :: inactive

Query :: // return assay outcome for C=CCSc1nnc2cc(CN3CCCC3)c(-c3ccc(Cl)cc3)nn12
Result :: inactive

Query :: Name the outcome recorded for CCC(=O)CC(O)CC(C)CC(NC(=O)C1CC(C)CN1C(=O)/C=C/C(C)CC)C(=O)NC(C(=O)NC(C)(C)C(=O)NC(CC(C)C)C(=O)NC(CC(C)C)C(=O)NC(C)(C)C(=O)NC(C)(C)C(=O)NCCC(=O)NC(C)CN(C)C)C(O)C(C)C (configuration not stated) (X42-[ξPro(4ξ-Me)][X43][ξLeu(3ξ-OH)][Aib]LL[Aib][Aib][βAla]-X44; configuration not given here) in the assay.
Result :: active

Query :: Per the records of this test, what outcome belongs to CC1CC(C(=O)OC2OC(COC3OC(CO)C(OC4OC(C)C(O)C(O)C4O)C(O)C3O)C(O)C(O)C2O)C2CCC3(C)C(=CCC4(C)C3CCC3C(C)(CO)C(O)C(O)CC34C)C2C1C (configuration not stated) ?
Result :: inactive

Query :: Dear colleague, could you share the recorded outcome for Cc1ccc(NC(=O)C(=O)C2NC(=S)NC2=O)c([N+](=O)[O-])c1 (configuration not stated) when you have a moment?
Result :: inactive

Query :: Status in this test for COC(=O)C1=C(OC(=O)/C=C/c2ccc(Cl)cc2)C(C(=O)OC)[C@]2(O)[C@@H](C(=O)OC)[C@H]1C[C@@H](c1ccccc1)[C@@H]2C(=O)OC (some centres not stated) ?
Result :: inactive

====

- Test system: SK-MEL-5
- run_description: NCI tumour cell line growth inhibition, 48 h
Calls of active or inactive are those of the source. Cut-off read from the data, not from the text of the source: active = GI50 up to about 1.1 µM and inactive = higher.
measured_parameter: GI50

Query :: Entry O=C(NN=C1NCCCCN1)Nc1ccc(Cl)cc1 : reported GI50 = ?
Result :: > 100 µM (inactive)

Query :: Query (compound): N#CC1CCCCOCCOCCOCCOCCOCCCCCC1=O (stereo unspecified) ; field requested: GI50
Result :: > 100 µM (inactive)

Query :: Reported GI50, compound CC(=O)CCC1(c2ccccc2)OC(=O)C(C#N)=C1c1ccccc1 (stereo unspecified) : ____
Result :: > 100 µM (inactive)

Query :: Query: GI50; subject: CC(=O)c1cc2c3c(c1)c1cc4c(cc1c(=O)n3CC2)OCO4
Result :: 31 µM (inactive)

Query :: Please look up its GI50: S=C(Nc1ccc2cn[nH]c2c1)Nc1ccc2cn[nH]c2c1
Result :: 45.1 µM (inactive)

Query :: Using the record for Clc1ccc(/C=C/c2nc(-c3ccc(Cl)cc3)cn3c2nc2ccccc23)cc1 , report its GI50.
Result :: > 100 µM (inactive)

Query :: Record request: GI50 value, item CC(=O)NC1=C(C)C(=O)c2c(nc3n2CC[C@H]3OC(C)=O)C1=O
Result :: 3.09 µM (inactive)

Query :: // lookup GI50 for CC(=O)NNc1nc(C)c(C(/C=C/c2ccc3c(c2)OCO3)=N/Nc2ccccc2)s1
Result :: > 100 µM (inactive)

Query :: Tell me the measured GI50 of OCc1ccc2c(c1)CC1(Cc3ccc(/C=N/O)cc3C1)C2 (stereo unspecified) , please.
Result :: 1.34 µM (inactive)

Query :: I am curious: what GI50 value has been reported for C=CCOc1ccc(N)c([N+](=O)[O-])c1 ?
Result :: > 100 µM (inactive)

Query :: What does the record list as GI50 for C/C(Cl)=N\OC(=O)Nc1ccccc1C(F)(F)F ?
Result :: > 100 µM (inactive)

====

- Tested on: OVCAR-5
- run_description: NCI tumour cell line growth inhibition, 48 h
The source made the active and inactive calls. Rule as the data show it: active = GI50 up to about 1.1 µM and inactive = higher.
Bench note: report the call from Y (active), N (inactive)

compound=Cc1ccc(S(=O)(=O)N/N=C2\C(=O)Nc3cc(O)c(C(=O)O)cc32)cc1 assigned_label=N
compound=O=c1[nH]c(C2CCCCC2)nc2ccc(Cl)cc12 assigned_label=N
compound=c1cnc2nc3n(c2c1)CSC3 assigned_label=N
compound=C=C1c2nc3ccccc3n2C=C(c2ccc(OC)cc2)N1c1ccc(OCCN2CCOCC2)cc1 assigned_label=N
compound=CCC[C@H](O)[C@@H](CNc1cc(NC(C)=O)nc(NC(C)=O)n1)N(Cc1ccccc1)Cc1ccccc1 assigned_label=N
compound="CC1CC(NN)=Nc2ccccc2N1 (stereo not given)" assigned_label=N
compound=O=C1c2cc(O)c(O)cc2O[C@H](c2ccc(O)c(O)c2)[C@H]1O assigned_label=N
compound="Nc1ccc(C2NC(=O)Cc3c2ccc2ccccc32)cc1 (stereo not given)" assigned_label=N
compound=O=C(Cc1csc(-c2nc(CC(=O)NNc3ccccc3)cs2)n1)NNc1ccccc1 assigned_label=N
compound=Cc1cc2c(cc1C(=O)CCC(=O)O)CC1(C2)Cc2cc(C)c(C(=O)CCC(=O)O)cc2C1 assigned_label=N

Query :: I'd appreciate the recorded outcome for COc1ccc2c(c1)C(=O)CC(C(N)=O)C2 (stereo not given) from this test.
Result :: N

Query :: Which outcome did this test record for the compound CN(CC(N)=O)C(=O)N(CCCl)N=O ?
Result :: N

Query :: Hi team, can someone confirm the assay call for Cc1cc(O)nc(NN2C(Cl)C(=O)C2c2ccc(Cl)cc2)n1 (stereo not given) ?
Result :: N

Query :: What classification did CCN(CC)CC1CCCCCCCCCCC1=O (stereo not given) end up with in this test?
Result :: N

Query :: What is the recorded call for this compound in the test? COc1cccc(/C=N/n2c(Cc3ccccc3)n[nH]c2=O)c1
Result :: N

Query :: Can you look up the reported call for CC1NCCc2c1[nH]c1cc(O)ccc21 (stereo not given) for me?
Result :: N
